Please respond with reported Herbicidal effect rating, ORYSAK for every item in the list.
# Test system: ORYZA SATIVA, L. CV. KOSHIHIKARI
# protocolDescription: Post-transplant rice evaluation under flooded paddy conditions (Example 43), ORYSAK (Rice, Koshihikari)
# Type: in vivo
# Design: key: visual rating on a 0-9 scale, compared with control
# studyConditions: 0.250 kg/ha, applied three days after transplanting rice, 25 to 30 days after treatment
Please give the numeric answer without any surrounding text.

Lookup result for COC(=O)Cn1c(=O)[nH]c(=O)n(-c2cc(Oc3ccc(C(F)(F)F)cc3Cl)ccc2[N+](=O)[O-])c1=O ; measured Herbicidal effect rating, ORYSAK: 6.0

For record COC(=O)Cn1c(=O)n(C)c(=O)n(-c2cc(Oc3c(F)cc(C(F)(F)F)cc3Cl)ccc2F)c1=O the listed Herbicidal effect rating, ORYSAK is 9.0

// Herbicidal effect rating, ORYSAK lookup, molecule = COC(=O)Cn1c(=O)n(C)c(=O)n(-c2cc(Oc3c(F)cc(C(F)(F)F)cc3Cl)ccc2Br)c1=O , result: 9.0

Measured Herbicidal effect rating, ORYSAK of COC(=O)Cn1c(=O)n(C)c(=O)n(-c2cc(Oc3ccc(C(F)(F)F)cc3Cl)ccc2[N+](=O)[O-])c1=O : 8.0

response.value for CCOC(=O)Cn1c(=O)[nH]c(=O)n(-c2cc(Oc3ccc(C(F)(F)F)cc3Cl)ccc2[N+](=O)[O-])c1=O (field: Herbicidal effect rating, ORYSAK) = 2.0
